Would you kindly list IC50 for each of these compounds?
test system: pSTAT5 signaling in SET-2 cells in whole blood; assay: pSTAT5 SET-2 whole blood MSD assay; assay type: cell-based; conditions: Homo sapiens, pSTAT5, 2 hour, read-out: SET2 WB IC50

The cases that follow already have their IC50 on record.
compound	assay target	IC50
[2H]C([2H])([2H])n1cc(-c2[nH]c3ncc4c(c3c2-c2ccc3c(cnn3C([2H])([2H])[2H])c2)n([C@@H]2CC[C@@H](NC(=O)OC)C2)c(=O)n4C([2H])([2H])[2H])c(F)n1	pSTAT5 signaling in SET-2 cells in whole blood	≤ 2.5 µM
[2H]C([2H])([2H])n1cc(-c2[nH]c3ncc4c(c3c2-c2ccc3c(c2)COC3(C)C)n([C@@H]2CC[C@@H](NC(=O)OC)C2)c(=O)n4C)c(F)n1	pSTAT5 signaling in SET-2 cells in whole blood	≤ 2.5 µM
[2H]C([2H])([2H])n1c(=O)n([C@@H]2CC[C@@H](NC(=O)OC)C2)c2c3c(-c4ccc5c(c4)COC5(C)C)c(-c4cn(C([2H])([2H])C([2H])([2H])[2H])nc4F)[nH]c3ncc21	pSTAT5 signaling in SET-2 cells in whole blood	≤ 2.5 µM
COc1nn(C)cc1-c1[nH]c2ncc3c(c2c1-c1ccc2c(cnn2C)c1)n(C1CCOCC1)c(=O)n3C [A, reference compound]	pSTAT5 signaling in SET-2 cells in whole blood	> 7.5 µM
[2H]C([2H])([2H])n1cc(-c2[nH]c3ncc4c(c3c2-c2ccc3c(cnn3CC(F)F)c2)n([C@@H]2CC[C@@H](NC(=O)OC)C2)c(=O)n4C)c(F)n1	pSTAT5 signaling in SET-2 cells in whole blood	≤ 2.5 µM
[2H]C([2H])([2H])n1cc(-c2[nH]c3ncc4c(c3c2-c2ccc3c(c2)COC3(C)C)n([C@@H]2CC[C@@H](NC(=O)OC)C2)c(=O)n4C([2H])([2H])[2H])c(F)n1	pSTAT5 signaling in SET-2 cells in whole blood	≤ 2.5 µM
[2H]C([2H])([2H])n1cc(-c2[nH]c3ncc4c(c3c2-c2ccc3c(cnn3C(C)C)c2)n([C@@H]2CC[C@@H](NC(=O)OC)C2)c(=O)n4C)c(F)n1	pSTAT5 signaling in SET-2 cells in whole blood	≤ 2.5 µM
[2H]C([2H])([2H])n1cc(-c2[nH]c3ncc4c(c3c2-c2cc(F)c3c(cnn3C([2H])([2H])[2H])c2)n([C@@H]2CC[C@@H](NC(=O)OC)C2)c(=O)n4C([2H])([2H])[2H])c(F)n1	pSTAT5 signaling in SET-2 cells in whole blood	≤ 2.5 µM
COC(=O)N[C@@H]1CC[C@@H](n2c(=O)n(C)c3cnc4[nH]c(-c5cn(C)nc5OC)c(-c5ccccc5)c4c32)C1	pSTAT5 signaling in SET-2 cells in whole blood	2.5 to 5 µM

Now let's try a different one.
Q) Quick check: IC50 of `[2H]C([2H])([2H])n1ncc2cc(-c3c(-c4cn(C([2H])([2H])C([2H])([2H])[2H])nc4F)[nH]c4ncc5c(c34)n([C@@H]3CC[C@@H](NC(=O)OC)C3)c(=O)n5C([2H])([2H])[2H])ccc21` ?
A) ≤ 2.5 µM
